// data source = paper PMC8540335

target: 2NCp7 (NCp7 with 2 Zn2+) (HIV-1, UniProt P04591 378-432)
procedure.summary: SPR; 2 Zn2+ per protein; 50 RU RNA immobilized; SPR (Biacore X100, SA chip): 10 mM HEPES pH 7.4, 150 mM NaCl, 0.005% Tween-20, 25 C
particulars: protein: recombinant; tags: 6xHis (pET28); label: 3'-biotin; hairpin
value.kind: pKd
In textbook form, pKd equals minus log to base ten of the concentration in mol/L.

Query: Please report pKd for the following binder: GGACUAGCGGAGGCUAGUCC (structured_RNA) [SL3-RNA]
Response: 8.50
